test: Solubility in PBS and water; type: physicochemical; conditions: PBS
Peptide text beside a SMILES is read from it. * marks the point of attachment. Succinyl(20-O-(20S)-CPT) = CC[C@@]1(OC(=O)CCC(=O)*)C(=O)OCc2c1cc1n(c2=O)Cc2cc3ccccc3nc2-1; Fmoc = O=C(OCC1c2ccccc2-c2ccccc21)*
readout name: solubility in PBS

[[record]]
molecule = "CC[C@@]1(OC(=O)CCC(=O)NCCCC[C@H](NC(=O)[C@H](CCCCN)NC(=O)[C@H](Cc2ccccc2)NC(=O)[C@H](CCCCN)NC(=O)OCC2c3ccccc3-c3ccccc32)C(N)=O)C(=O)OCc2c1cc1n(c2=O)Cc2cc3ccccc3nc2-1 [Compound E, Fmoc-KFKK(CPT)-NH2] (Fmoc-KFKK(Succinyl(20-O-(20S)-CPT))-NH2; N-terminus and C-terminus assumed)"
endpoint_value = "soluble"

[[record]]
molecule = "CC[C@@]1(OC(=O)CCC(=O)NCCCC[C@H](NC(=O)[C@H](CCCCN)NC(=O)[C@H](Cc2ccccc2)NC(=O)[C@H](CCCCN)NC(C)=O)C(N)=O)C(=O)OCc2c1cc1n(c2=O)Cc2cc3ccccc3nc2-1 [Compound F, Ac-KFKK(CPT)-NH2] (Ac-KFKK(Succinyl(20-O-(20S)-CPT))-NH2)"
endpoint_value = "soluble"

[[record]]
molecule = "CC[C@@]1(OC(=O)CCC(=O)NCCCC[C@H](NC(=O)[C@H](CCCCN)NC(=O)[C@H](Cc2ccccc2)NC(=O)[C@@H](N)CCCCN)C(N)=O)C(=O)OCc2c1cc1n(c2=O)Cc2cc3ccccc3nc2-1 [G, NH2—KFKK(CPT)-NH2] (H-KFKK(Succinyl(20-O-(20S)-CPT))-NH2)"
endpoint_value = "soluble"

